Would you mind telling me the reported GI50 of each entry?
test system: UACC-257; test: NCI tumour cell line growth inhibition, 48 h
Active and inactive are the calls of the source. No stated cut-off is given here; in the data, active = GI50 up to about 1.1 µM and inactive = higher.

Reported GI50 for `Cc1ccc(NC(=O)c2nc(S)nc(N)c2-c2ccccc2C)cc1C` was > 100 µM (inactive)

Reported GI50 for c1ccc(C2N=NN(c3ccccc3)C2N2CCCCC2)cc1 (centres undefined) was > 100 µM (inactive)

Reported GI50 for COc1ccccc1N1C(=O)CS(=O)(=O)C1c1cccc(Oc2ccccc2)c1 (centres undefined) was 11.9 µM (inactive)

Reported GI50 for `O/N=C1\CCc2nonc2\C1=N/Nc1ccccc1` was > 100 µM (inactive)

Reported GI50 for C/C=C1\CNC1C(=O)O (centres undefined) was > 100 µM (inactive)

Reported GI50 for `c1ccc2c(c1)CCc1c(-c3ccncc3)n[nH]c1-2` was 25.6 µM (inactive)

Reported GI50 for COc1ccc(C(CC(=O)C(C)(C)CN2CCCCC2)SCCS(=O)(=O)O)cc1 (centres undefined) was 34.4 µM (inactive)

Reported GI50 for Cc1nc2c3c(ncn2n1)Oc1c(c(-c2ccccc2)nn1-c1ccccc1)C3c1ccc(Cl)cc1 (centres undefined) was > 100 µM (inactive)

Reported GI50 for COc1cccc2c1C(=O)c1c(O)c3c(c(O)c1C2=O)C[C@@](O)(C(C)=O)C[C@@H]3OC1CC(O)C(O)C(C)O1 (some centres undefined) was 3.79 µM (inactive)

The reported numbers originate from ChEMBL document CHEMBL1201862.
